- targetDesc: hα2A receptor (Homo sapiens)
- Construct: expressed in transfected cells; host or cells: CHO cells, stably transfected; membrane preparation
- Sequence (P08913 1-465): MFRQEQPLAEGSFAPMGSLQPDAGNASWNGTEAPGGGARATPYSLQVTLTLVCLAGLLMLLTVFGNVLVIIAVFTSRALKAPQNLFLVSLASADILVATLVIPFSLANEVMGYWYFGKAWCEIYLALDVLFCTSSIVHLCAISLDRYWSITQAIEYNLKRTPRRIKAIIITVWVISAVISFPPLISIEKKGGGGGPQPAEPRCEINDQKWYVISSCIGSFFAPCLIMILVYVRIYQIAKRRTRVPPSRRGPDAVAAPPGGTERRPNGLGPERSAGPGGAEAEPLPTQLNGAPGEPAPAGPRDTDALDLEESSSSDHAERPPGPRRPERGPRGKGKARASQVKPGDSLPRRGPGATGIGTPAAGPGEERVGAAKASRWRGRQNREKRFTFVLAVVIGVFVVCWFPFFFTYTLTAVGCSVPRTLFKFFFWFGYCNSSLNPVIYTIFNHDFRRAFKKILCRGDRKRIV
- procedureText: Radioligand binding experiment for α2A-adrenoceptor ([3H]raulwolscine, CHO cell membranes)
- conditionContext: [3H]raulwolscine binding
recordedMetric: h-α2A pIC50

# compound, targetDesc, reportedValue
data = [
    ("C/C(=C\\c1ccccc1)CN1CCC(Nc2nccn(-c3cccc(CNCCCN4CCCC4=O)c3)c2=O)CC1 [1-133]", "hα2A receptor (Homo sapiens)", 7.5),
    ("CC(=O)N1CCN(Cc2ccc(-n3ccnc(NC4CCN(C/C(C)=C/c5ccccc5)CC4)c3=O)cc2)CC1 [2-23]", "hα2A receptor (Homo sapiens)", 6.1),
    ("C/C(=C\\c1ccccc1)CN1CCC(Nc2nccn(-c3ccc(CNC(=O)c4ccc(F)cc4)cc3)c2=O)CC1 [1-78]", "hα2A receptor (Homo sapiens)", 6.7),
    ("C/C(=C\\c1ccccc1)CN1CCC(Nc2nccn(-c3cccc(CNCCN4CCOCC4)c3)c2=O)CC1 [1-149]", "hα2A receptor (Homo sapiens)", 7.6),
    ("C/C(=C\\c1ccccc1)CN1CCC(Nc2nccn(-c3ccc(CNCC4CCCO4)cc3)c2=O)CC1 (stereo not shown) [1-146]", "hα2A receptor (Homo sapiens)", 7.0),
    ("C/C(=C\\c1ccccc1)CN1CCC(Nc2nccn(-c3ccc(CO)cc3)c2=O)CC1 [3-3]", "hα2A receptor (Homo sapiens)", 6.8),
    ("C/C(=C\\c1ccccc1)CN1CCC(Nc2nccn(-c3ccc(CNC(=O)c4ccno4)cc3)c2=O)CC1 [1-153]", "hα2A receptor (Homo sapiens)", 6.9),
]
